- TEST SUMMARY: Tissue distribution in CT26 tumor-bearing mice (LC–MS/MS)
- Assay type: in vivo
- ASSAY SETUP: mouse, liver, Balb/c mice, 10 mg/kg, read-out: concentration in liver
concentration at 24 h for assorted compounds

Prompt: Look at this compound and give its reported concentration at 24 h. COCCCOc1c(C)c(OC(=O)c2c(C)cc(OC)c(C)c2OC)cc(C)c1C(=O)OC [SB5]
Response: 1 to 2 nM

Others:
Prompt: Param item = COCCOc1c(C)c(OC(=O)c2c(C)cc(OC)c(C)c2OC)cc(C)c1C(=O)OC [SB4] ; retrieve measured concentration at 24 h.
Response: 1 to 2 nM

----------
- TEST SUMMARY: Pharmacokinetic study in rat
- Type: in vivo, Sprague–Dawley rats
- ASSAY SETUP: male, Sprague-Dawley, IP 10 mg/kg, plasma
MEASURED ATTRIBUTE: Cmax (ng/mL)

Prompt: Any idea what Cmax was measured for COCCCOc1c(C)c(OC(=O)c2c(C)cc(OC)c(C)c2OC)cc(C)c1C(=O)OC [SB5] ?
Response: 45.6

Prompt: Consider next the molecule COCCOc1c(C)c(OC(=O)c2c(C)cc(OC)c(C)c2OC)cc(C)c1C(=O)OC [SB4] in the same way.
Response: 60.8

----------
- TEST SUMMARY: Pharmacokinetic study in rat
- Assay type: in vivo, Sprague–Dawley rats
- ASSAY SETUP: male, Sprague-Dawley, IP 10 mg/kg, plasma, read-out: AUCINF obs
MEASURED ATTRIBUTE: AUC(0-inf) (ng·h/mL)

(a) COCCCOc1c(C)c(OC(=O)c2c(C)cc(OC)c(C)c2OC)cc(C)c1C(=O)OC
(b) COCCOc1c(C)c(OC(=O)c2c(C)cc(OC)c(C)c2OC)cc(C)c1C(=O)OC
Prompt: Min AUC(0-inf)? a | b Provide the label of your selected option as the answer.
Response: a
(a: 209 ng·h/mL, b: 394 ng·h/mL)

----------
- Test system: SW620 cells
- TEST SUMMARY: MTT cell viability, SW620
- Format: cell-based
- ASSAY SETUP: Homo sapiens, SW-620; 48 h, MTT assay
MEASURED ATTRIBUTE: IC50 (µM)

Prompt: Any idea what IC50 was measured for "COCCOc1c(C)c(OC(=O)c2c(C)cc(OC)c(C)c2OC)cc(C)c1C(=O)OC" ?
Response: 5.33

(P) COc1cc(C)c(C(=O)Oc2cc(C)c(C(=O)O)c(O)c2C)c(OC)c1C [DA, diffractaic acid, reference compound]
(Q) COCCCOc1c(C)c(OC(=O)c2c(C)cc(OC)c(C)c2OC)cc(C)c1C(=O)OC
Prompt: Sort P and Q by IC50 descending and give the first. Answer with the label corresponding to your selection.
Response: P

----------
- TEST SUMMARY: Pharmacokinetic study in rat
- Type: in vivo, Sprague–Dawley rats
- ASSAY SETUP: male, Sprague-Dawley, PO 10 mg/kg, plasma
- Description: The stock solution of SB4 and SB5 was prepared at a concentration of 1.0 mg/mL in DMSO. Additionally, the standard solutions for SB4 and SB5 were prepared by diluting with 60% ACN (0.1% formic acid) in distilled water (DW). […] The sample was ionized by an electrospray ionization source. […] The MRM transitions selected for quantification were m/z 375.075 to 150.100 for DA, m/z 447.113 to 415.200 for SB‐04, m/z 461.119 to 429.100 for SB‐05, and m/z 426.093 to 358.000 for the IS (Deucravacitinib). […]
MEASURED ATTRIBUTE: Cmax (ng/mL)

Prompt: # input compound: "COCCCOc1c(C)c(OC(=O)c2c(C)cc(OC)c(C)c2OC)cc(C)c1C(=O)OC" ; wanted: its Cmax
Response: 22

Prompt: How about this compound: "COCCOc1c(C)c(OC(=O)c2c(C)cc(OC)c(C)c2OC)cc(C)c1C(=O)OC"
Response: 27.8

----------
- TEST SUMMARY: Pharmacokinetic study in rat
- Type: in vivo, Sprague–Dawley rats
- ASSAY SETUP: male, Sprague-Dawley, IP 10 mg/kg, plasma
MEASURED ATTRIBUTE: Tmax (min)

Prompt: State the recorded Tmax for this entry: COCCOc1c(C)c(OC(=O)c2c(C)cc(OC)c(C)c2OC)cc(C)c1C(=O)OC [SB4]
Response: 18.6

Prompt: Param item: COCCCOc1c(C)c(OC(=O)c2c(C)cc(OC)c(C)c2OC)cc(C)c1C(=O)OC [SB5]
Response: 18.6

----------
- TEST SUMMARY: Pharmacokinetic study in rat
- Format: in vivo, Sprague–Dawley rats
- ASSAY SETUP: male, Sprague-Dawley, PO 10 mg/kg, plasma
MEASURED ATTRIBUTE: AUC(0-t) (ng·h/mL)

Prompt: Requested field: AUC(0-t). Item: "COCCCOc1c(C)c(OC(=O)c2c(C)cc(OC)c(C)c2OC)cc(C)c1C(=O)OC"
Response: 87.1

Prompt: Next compound up: "COCCOc1c(C)c(OC(=O)c2c(C)cc(OC)c(C)c2OC)cc(C)c1C(=O)OC"
Response: 113

----------
Entries and their IC50 values follow.
- System: HEK293T cells
- TEST SUMMARY: MTT cell viability, HEK293T
- Type: cell-based
- ASSAY SETUP: Homo sapiens, HEK-293T; 48 h, MTT assay
- Experimental: Cells (3 × 10^3 cells/well) were seeded on a 96‐well plate, grown overnight, and then treated with compounds at indicated concentrations for 48 h. After incubation with MTT for 4 h at 37°C, cells were lysed with 150 µL of DMSO (Sigma–Aldrich, St. Louis, USA). Absorbance was measured at 570 nm on a microplate reader with the Gen5 software (v.2.03.1; BioTek, Winooski, VT, USA).
State the answer as a number, implicitly in µM.

Recorded IC50, per entry:
Prompt: Param item = COc1cc(C)c(C(=O)Oc2cc(C)c(C(=O)O)c(O)c2C)c(OC)c1C [DA, diffractaic acid, reference compound] ; retrieve measured IC50.
Response: 121

Prompt: And what about the compound COCCOc1c(C)c(OC(=O)c2c(C)cc(OC)c(C)c2OC)cc(C)c1C(=O)OC [SB4] ?
Response: 19

Now consider the entry below.
Prompt: Dear colleague, I am looking for the recorded IC50 of the following compound: COCCCOc1c(C)c(OC(=O)c2c(C)cc(OC)c(C)c2OC)cc(C)c1C(=O)OC [SB5]
Response: 63.2
